Entries and their pIC50
target: KRAS G13D (Homo sapiens, UniProt P01116+P62937, G13D); assay: Ras-Raf disruption / FRET / MOA assay (BRAF RBD); assay type: biochemical; details: Ras-Raf disruption, with Cyclophilin A; read-out: KRAS G13D FRET data IC50
Sequence (P01116 1-169 isoform P01116-2 G13D limits assumed): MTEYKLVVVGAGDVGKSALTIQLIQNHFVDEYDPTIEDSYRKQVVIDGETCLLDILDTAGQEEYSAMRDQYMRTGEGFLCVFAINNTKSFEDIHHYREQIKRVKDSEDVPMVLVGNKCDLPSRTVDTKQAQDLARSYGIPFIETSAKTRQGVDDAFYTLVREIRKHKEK
Sequence (P62937 whole entry): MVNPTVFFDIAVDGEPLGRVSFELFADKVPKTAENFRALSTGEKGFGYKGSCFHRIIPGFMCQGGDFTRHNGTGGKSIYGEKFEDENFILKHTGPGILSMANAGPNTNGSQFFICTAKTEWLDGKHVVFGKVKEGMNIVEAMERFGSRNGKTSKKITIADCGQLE
pIC50: −log10 of the molar value.
ENDPOINT_LABEL: pIC50

| COMPOUND | RESULT |
| --- | --- |
| CCn1c(-c2cccnc2[C@H](C)OC)c2c3cc(ccc31)-c1cccc(c1)C[C@H](NC(=O)[C@H](C(C)C)N(C)C(=O)[C@H]1CCN(C(=O)[C@H]3CN3)C1)C(=O)N1CCC[C@H](N1)C(=O)OCC(C)(C)C2 [Example 106] | 5.00 to 6.00 |
| CCn1c(-c2cccnc2[C@H](C)OC)c2c3cc(ccc31)-c1cc(O)cc(c1)C[C@H](NC(=O)[C@H](C(C)C)N(C)C(=O)N1CCCN(C(=O)[C@H]3CN3)CC1)C(=O)N1CCC[C@H](N1)C(=O)OCC(C)(C)C2 (atropisomer, axis not shown) [Example 190] | 6.00 to 7.00 |
| CCn1c(-c2cccnc2[C@H](C)OC)c2c3cc(ccc31)-c1cc(O)cc(c1)C[C@H](NC(=O)[C@@H](COC1CN(C(=O)[C@H]3CN3)C1)C(C)C)C(=O)N1CCC[C@H](N1)C(=O)OCC(C)(C)C2 [Example 312] | 5.00 to 6.00 |
| CCn1c(-c2cccnc2[C@H](C)OC)c2c3cc(ccc31)-c1cc(O)cc(c1)C[C@H](NC(=O)[C@H](C(C)C)N(C)C(=O)N1CCN(C(=O)[C@H]3CN3)CC1=O)C(=O)N1CCC[C@H](N1)C(=O)OCC(C)(C)C2 (atropisomer, axis not shown) [Example 183] | 6.00 to 7.00 |

Origin of the recorded values: patent US20230233569A1
